# Percent Effect values compiled below
# target: Chromo domain-containing protein 1 (Saccharomyces cerevisiae (strain ATCC 204508 / S288c) (Baker's yeast))
# test_method_notes: ScCHD-1 Enzyme Inhibition Assay; further: in the data most compounds retested in dose-response had high values
# Assay type: functional
# Design: scale not given: direction of the effect not stated beside the values
# reported_conditions: 30 µM

# compound, Percent Effect (%)
data = [
    ("O=S1(=O)COCCN1Cc1ccc(Cl)c(F)c1", -5.23),
    ("COc1ccc(NC(C)C(=O)N2CCN(c3ncccn3)CC2)cn1 (configuration not stated)", -3.06),
    ("COc1cccc(OCCNCc2c(C)nn(C)c2N(C)C)c1", -8.18),
    ("Cc1ccc(C(=O)N2Cc3ccccc3C2)cc1N1CCNC1=O", -6.92),
    ("CN(C)Cc1ccnc(C2CCCN2Cc2ccncc2)n1 (configuration not stated)", -20.6),
    ("COCC1CN(Cc2ccc(C)o2)Cc2nnn(CC3CC3)c21 (configuration not stated)", 5.36),
    ("CC(=O)N1CCCC1c1nnc2n1CCCCC2 (configuration not stated)", -5.77),
    ("Cc1cccc(NC(=O)Cn2ncc(SCC(N)=O)c(Cl)c2=O)c1C", 79.5),
    ("O=C(NCCc1ccccn1)C1=NN(c2ccccc2)C(=O)CN1", -1.69),
    ("CCOC(=O)C1CCCN(c2ccc(-c3nc(C)no3)cn2)C1 (configuration not stated)", -6.07),
    ("CCOC(=O)NC(CNC(=O)CCc1ccccn1)CC(C)C (configuration not stated)", -0.238),
    ("CO[C@H]1CCN(S(=O)(=O)c2cn(C)cn2)[C@H]1Cc1cccnc1", -9.19),
]

---

# target: Tyrosyl-tRNA synthetase, putative (Trypanosoma cruzi (strain CL Brener)) (UniProt Q4DSP6)
# Sequence (Q4DSP6 as listed by the source): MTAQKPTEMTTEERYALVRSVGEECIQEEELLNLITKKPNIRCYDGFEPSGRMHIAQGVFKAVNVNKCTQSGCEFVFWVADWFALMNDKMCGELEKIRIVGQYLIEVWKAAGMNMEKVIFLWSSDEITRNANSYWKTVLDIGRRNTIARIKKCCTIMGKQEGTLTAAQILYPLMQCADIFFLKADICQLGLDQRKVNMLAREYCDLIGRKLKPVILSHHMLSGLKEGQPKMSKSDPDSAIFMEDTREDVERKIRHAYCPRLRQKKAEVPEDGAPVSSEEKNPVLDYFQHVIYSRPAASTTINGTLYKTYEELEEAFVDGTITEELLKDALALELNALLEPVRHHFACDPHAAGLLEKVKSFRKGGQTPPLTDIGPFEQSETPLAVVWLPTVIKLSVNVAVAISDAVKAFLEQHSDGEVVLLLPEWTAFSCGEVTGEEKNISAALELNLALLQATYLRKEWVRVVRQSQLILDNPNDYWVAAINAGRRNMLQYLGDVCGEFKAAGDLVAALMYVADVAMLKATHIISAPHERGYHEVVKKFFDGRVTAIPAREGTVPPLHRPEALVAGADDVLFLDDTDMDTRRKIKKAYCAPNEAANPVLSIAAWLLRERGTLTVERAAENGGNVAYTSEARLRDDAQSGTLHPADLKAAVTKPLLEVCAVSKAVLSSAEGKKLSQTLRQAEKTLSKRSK
# test_method_notes: Trypanosoma cruzi tyrosyl tRNA synthetase (TcYRS) SOP
# Assay type: functional
# Design: scale not given: direction of the effect not stated beside the values
# reported_conditions: 30 µM

# compound, target, Percent Effect [%]
measured = [
    ("Cc1nc(C)n(CC2CCCN(CCNC(=O)OC(C)(C)C)C2)n1 (centres undefined)", "Tyrosyl-tRNA synthetase, putative (Trypanosoma cruzi (strain CL Brener)) (UniProt Q4DSP6)", 0),
    ("O=C(Cn1ccnc1)N1C[C@@H]2CC[C@H](Oc3ccccc3)[C@@H]2C1", "Tyrosyl-tRNA synthetase, putative (Trypanosoma cruzi (strain CL Brener)) (UniProt Q4DSP6)", 11.7),
    ("Cc1cnn(C2CCCN(C(=O)C3=NN(C)C(=O)CC3)C2)c1 (centres undefined)", "Tyrosyl-tRNA synthetase, putative (Trypanosoma cruzi (strain CL Brener)) (UniProt Q4DSP6)", 13.6),
    ("CC(C)c1nc(C2CCCN(C(=O)CCn3ccnc3)C2)no1 (centres undefined)", "Tyrosyl-tRNA synthetase, putative (Trypanosoma cruzi (strain CL Brener)) (UniProt Q4DSP6)", 18.5),
    ("CCc1csc(C2CCCN(C(=O)c3c[nH]c(C)n3)C2)n1 (centres undefined)", "Tyrosyl-tRNA synthetase, putative (Trypanosoma cruzi (strain CL Brener)) (UniProt Q4DSP6)", 12.2),
    ("Cc1n[nH]c(C2CN(C(=O)CCc3ccsc3)CCO2)n1 (centres undefined)", "Tyrosyl-tRNA synthetase, putative (Trypanosoma cruzi (strain CL Brener)) (UniProt Q4DSP6)", 2.5),
    ("Cc1ncccc1Oc1nccnc1C1CCN(C(C)C)CC1", "Tyrosyl-tRNA synthetase, putative (Trypanosoma cruzi (strain CL Brener)) (UniProt Q4DSP6)", 9.09),
    ("Cc1cc(C)nc(CCNC(=O)[C@H]2CNC[C@@H](C(=O)N3CCCC3)C2)n1", "Tyrosyl-tRNA synthetase, putative (Trypanosoma cruzi (strain CL Brener)) (UniProt Q4DSP6)", 3.7),
    ("O=C(Cn1cc(I)cn1)Nc1cccnc1", "Tyrosyl-tRNA synthetase, putative (Trypanosoma cruzi (strain CL Brener)) (UniProt Q4DSP6)", 7.79),
    ("CCN(C(=O)CN(C)C(c1cccc(F)c1)c1ccccn1)C1CC1 (centres undefined)", "Tyrosyl-tRNA synthetase, putative (Trypanosoma cruzi (strain CL Brener)) (UniProt Q4DSP6)", 7.32),
    ("CC(CNCc1ccncc1)Oc1ccccn1 (centres undefined)", "Tyrosyl-tRNA synthetase, putative (Trypanosoma cruzi (strain CL Brener)) (UniProt Q4DSP6)", 7.69),
    ("CC(=O)c1cccc(OCCCC(=O)N(C)CCc2ccncc2)c1", "Tyrosyl-tRNA synthetase, putative (Trypanosoma cruzi (strain CL Brener)) (UniProt Q4DSP6)", 17.1),
    ("Cc1nc(C2CCCN(C(=O)c3cccc4c3OCO4)C2)no1 (centres undefined)", "Tyrosyl-tRNA synthetase, putative (Trypanosoma cruzi (strain CL Brener)) (UniProt Q4DSP6)", 10.1),
    ("CCOCCN1CCN(Cc2cccc(C(=O)N(C)C)c2)CC1", "Tyrosyl-tRNA synthetase, putative (Trypanosoma cruzi (strain CL Brener)) (UniProt Q4DSP6)", 23.2),
    ("Cc1nc2cc(O)nn2c(C)c1CCC(=O)N(C)Cc1cscn1", "Tyrosyl-tRNA synthetase, putative (Trypanosoma cruzi (strain CL Brener)) (UniProt Q4DSP6)", 5.2),
    ("Cc1ccccc1CS(=O)(=O)NCCCN1CCCCC1", "Tyrosyl-tRNA synthetase, putative (Trypanosoma cruzi (strain CL Brener)) (UniProt Q4DSP6)", 3.7),
    ("Cc1cc(NC(=O)CCN2CCCC2Cn2cncn2)no1 (centres undefined)", "Tyrosyl-tRNA synthetase, putative (Trypanosoma cruzi (strain CL Brener)) (UniProt Q4DSP6)", 10.1),
    ("CC(C)Cc1noc(CN2CCCC(Cn3cncn3)C2)n1 (centres undefined)", "Tyrosyl-tRNA synthetase, putative (Trypanosoma cruzi (strain CL Brener)) (UniProt Q4DSP6)", 28.1),
    ("CC(C)NC(=O)N1CC[C@@H]2CN(Cc3cccc(Cl)c3)S(=O)(=O)[C@@H]2CC1", "Tyrosyl-tRNA synthetase, putative (Trypanosoma cruzi (strain CL Brener)) (UniProt Q4DSP6)", 10),
    ("COCCN1C[C@H]2CC[C@@]3(N=C(C)N(CC4CC4)C3=O)[C@H]2C1", "Tyrosyl-tRNA synthetase, putative (Trypanosoma cruzi (strain CL Brener)) (UniProt Q4DSP6)", 8.54),
    ("Cc1ccc(N2CCCN(C(=O)C(C(C)C)n3cncn3)CC2)nn1 (centres undefined)", "Tyrosyl-tRNA synthetase, putative (Trypanosoma cruzi (strain CL Brener)) (UniProt Q4DSP6)", 25.6),
    ("CC1CN(C(=O)c2ccn(-c3cccc(Cl)c3)n2)CCO1 (centres undefined)", "Tyrosyl-tRNA synthetase, putative (Trypanosoma cruzi (strain CL Brener)) (UniProt Q4DSP6)", 24.4),
    ("Cc1ccc(CN2CCc3ncnc(-c4cccnc4)c3CC2)o1", "Tyrosyl-tRNA synthetase, putative (Trypanosoma cruzi (strain CL Brener)) (UniProt Q4DSP6)", 0),
    ("Cc1ccc(CN2CCN(CC3CC3)[C@@H]3CS(=O)(=O)C[C@@H]32)cc1C", "Tyrosyl-tRNA synthetase, putative (Trypanosoma cruzi (strain CL Brener)) (UniProt Q4DSP6)", 8.64),
]

---

Reported Percent Effect values for a set of compounds
# Tested on: Trypanosoma cruzi
# test_method_notes: Trypanosoma cruzi phosphomannomutase and mannose-1-phosphate guanylyltransferase assay
# Assay type: functional
# Design: scale not given: direction of the effect not stated beside the values
# reported_conditions: 10 µM
property_name: Percent Effect

# compound, property_name, observed
measured = [
    ("COc1c(CNC2CCOc3ccccc32)c(C(C)C)nn1C (configuration not stated)", "Percent Effect", "1.58%"),
    ("COCCNc1nc2c(c(NCc3ccncc3)n1)CCNCC2", "Percent Effect", "3.28%"),
    ("CC(C)Cc1noc(CN2CCN(CCOc3ccc(Cl)cc3)CC2)n1", "Percent Effect", "5.08%"),
    ("Cc1noc(C)c1C(=O)NCC(C)N(C)C (configuration not stated)", "Percent Effect", "-7.71%"),
    ("O=C(COc1cccc2c1CCC2=O)NCc1ccccc1F", "Percent Effect", "4.58%"),
    ("CO[C@@H]1CC[C@H]2[C@H]1OCCN2C(=O)c1ccc(C)o1", "Percent Effect", "-7.2%"),
    ("Cn1cnc2c1C(COCC1CCOCC1)CN(C1CCOCC1)C2 (configuration not stated)", "Percent Effect", "-2.76%"),
    ("Cc1nc(N2CCN(C(=O)c3ccc(O)cc3)CC2)c2cnn(C)c2n1", "Percent Effect", "-2.74%"),
    ("CCc1nc(CN2CCN(c3ncnc4cc(F)ccc34)CC2)no1", "Percent Effect", "-3.44%"),
    ("Cc1ccccc1CC1(CO)CCCN(c2ncccc2C#N)C1 (configuration not stated)", "Percent Effect", "-5.21%"),
    ("CC(COc1ccccc1)NCc1nc(-c2cccnc2)no1 (configuration not stated)", "Percent Effect", "1.85%"),
    ("Cn1cc(C(=O)N[C@@H]2CN(Cc3cccs3)[C@@H]3CCCO[C@@H]32)cn1", "Percent Effect", "0.579%"),
]
